- test_method_notes: NCI Yeast Anticancer Drug Screen. Data for the mlh1 rad18 strain (AID 175)
- condition_details: S. cerevisiae mlh1 rad18 strain growth inhibition; at 50.0 µM; active compounds read high
Compounds without any hit were thinned out: in the full panel of roughly 79,000, 15% have a hit.
Everything with growth inhibition lower than 20% is criterion not met; everything else, including exactly 20%, is criterion met.

{"columns": ["compound", "label"],
 "data": [
  ["O=[N+]([O-])C(=C1NCCN1)C(Cl)=C(Cl)Cl", "criterion not met"],
  ["CCCS(=O)(=O)CCC(=O)c1ccccc1", "criterion not met"],
  ["OCC1=C(CO)CC=CC1", "criterion met"],
  ["Cc1noc(-c2ccccc2)c1N=Nc1ccccc1", "criterion met"]
]}

hey, is growth inhibition for this one >= 20%? `NCCN(CCN)/[N+]([O-])=N/O`
criterion not met

hey, is growth inhibition for this one >= 20%? `COc1cc2c(c(OC)c1OC)-c1ccc(SC)c(=O)cc1[C@@H](NC(=O)C(F)(F)F)CC2`
criterion not met

* * *

- test_method_notes: NCI Yeast Anticancer Drug Screen. Data for the cln2 rad14 strain (AID 165);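 further: 0% = growth equal to vehicle treated cultures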
- condition_details: S. cerevisiae cln2 rad14 strain, at 50.0 µM, active compounds read high
Compounds without any hit were thinned out: in the full panel of roughly 79,000, 15% have a hit.
measurement_type: growth inhibition (%)
The answer is to be given in %; state only the numeric part.

{"columns": ["molecule", "measurement_type", "test_result"],
 "data": [
  ["CCOC(=O)/C(=N/O)c1ccccn1", "growth inhibition", 16.2],
  ["O=C(/C=C/c1ccc(O)cc1)OC[C@@H](O)COC1OC(CO)C(O)C(O)C1O (stereo partly specified)", "growth inhibition", 6.8],
  ["C[N+](C)(C)C12CCC(CC1)C1([N+](C)(C)C)CCC2CC1", "growth inhibition", -10.2],
  ["CN(C)CCCN1N=Nc2cccc3cccc1c23", "growth inhibition", 11.7],
  ["CC(C)Oc1ccc(C(=O)O)cc1", "growth inhibition", -0.15]
]}

Shift focus to the following entry.
What measured growth inhibition goes with `CN(C)NC(=S)NC12CC3CC(CC(C3)C1)C2` ?
-18.9

* * *

- test_method_notes: NCI Yeast Anticancer Drug Screen. Data for the sgs1 mgt1 strain (AID 161);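 further: 0% = growth of cultures given vehicle only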
- condition_details: S. cerevisiae sgs1 mgt1 strain, at 50.0 µM, active compounds read high
The panel holds about 79,000 compounds, 15% with a hit somewhere; the sample as a whole holds those more often.
Everything with growth inhibition lower than 30% is not satisfied; everything else, including exactly 30%, is satisfied.

Solved entries:
{"columns": ["smiles_structure", "label"],
 "data": [
  ["COc1cccc(/C=C2\\SC(=S)N(/C=C3\\C(=O)Oc4ccccc4C3=O)C2=O)c1O", "satisfied"],
  ["O=C(c1ccccc1)N1CCOCC1", "not satisfied"],
  ["CCOC(=O)Cc1ccc(-c2csc(Nc3ccc(Cl)cc3)n2)cc1", "satisfied"],
  ["N#CCOc1ccc(/C=C/C(=O)c2ccc(Cl)cc2)cc1", "not satisfied"],
  ["C=C(Cl)COc1ccc(OCC(=C)Cl)cc1", "satisfied"]
]}

hey, is growth inhibition for this one >= 30%? `CC(=O)OCCn1c2ccccc2nc2cc3c(cc21)c(Cl)c(=O)c1ccccc13`
not satisfied

* * *

Measured growth inhibition accompanies every entry in the list below.
- test_method_notes: NCI Yeast Anticancer Drug Screen. Data for the rad50 strain (AID 155);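 further: 0% = growth of vehicle-only cultures of the same strain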
- condition_details: S. cerevisiae rad50 strain growth inhibition; at 50.0 µM; active compounds read high
About 79,000 compounds went through this panel and 15% of them were active in at least one assay; those are over-represented in the sample as a whole.
The answer is to be given in %; state only the numeric part.

{"columns": ["compound", "units_of_measure", "test_result"],
 "data": [
  ["CCOC(=O)C(C(=O)CC)=P(c1ccccc1)(c1ccccc1)c1ccccc1", "%", 3.35],
  ["O=C(CCN1C(=O)c2ccccc2C1=O)c1cnc(N2C(=O)c3ccccc3C2=O)[nH]1", "%", 15.6],
  ["Cc1ccc2c(c1)N=C(Nc1ccccc1)N=S2(C)=O (centres undefined)", "%", 2.95],
  ["CC(C)(C)NC(=O)NCc1ccccc1Cl", "%", 2.9],
  ["O=C(CC(C(=O)c1cccs1)c1cccs1)c1ccsc1 (centres undefined)", "%", -4.2],
  ["CCc1nnc2sc3c(Cl)c4nn5c(CC)nnc5sc4c(Cl)c3nn12", "%", 37.2],
  ["CC12CCC(=O)N1[C@@H](c1ccccc1)[C@@H](c1ccccc1)O2 (some centres undefined)", "%", 25.6],
  ["COc1ccc(/C=N/NC(=O)CCCCCCCCC(=O)N/N=C/c2ccc(OC)c(OC)c2)cc1OC", "%", -26.4]
]}

What measured growth inhibition goes with `CCOC(=O)c1nnc(-c2ccccc2)nc1Cl` ?
-2.55

What measured growth inhibition goes with `Nc1ccnc(Cl)n1` ?
-2.45

What measured growth inhibition goes with Cc1ccccc1C(c1ccccc1)C(CO)CO (centres undefined) ?
-1

What measured growth inhibition goes with `O=C(O)CSCc1ccccc1Cl` ?
1.6

What measured growth inhibition goes with CCC(COCC(CC)C(=O)O)C(=O)O (centres undefined) ?
11.3

What measured growth inhibition goes with Cc1ccc(S(=O)(=O)OCC2OC(CCCO)C/C([Si](C)(C)C)=C\CC2Cl)cc1 (centres undefined) ?
48.8

What measured growth inhibition goes with `CC(=O)NC1c2ccccc2-c2ccccc21` ?
-5.1

What measured growth inhibition goes with CCOC(=O)c1c(N)sc2c1C(C(=O)OCC)CCCC2 (centres undefined) ?
-11.1

What measured growth inhibition goes with `COc1ccc(C(CC(C)(C)C)c2ccc(OC)cc2)cc1` ?
-0.9

What measured growth inhibition goes with `O=C(Oc1ccccc1)C(c1ccccc1)c1ccccc1` ?
-9.95

What measured growth inhibition goes with `Clc1cccc(-c2nc3cccc4c3n2Cc2ncccc2-4)c1` ?
-47.8
